Reference for the values: ChEMBL document CHEMBL1144332

# Tested target: Alpha adrenergic receptor 1A and 1B (Rattus norvegicus) (UniProt P15823+P43140)
# Sequence (P15823 whole entry, looked up): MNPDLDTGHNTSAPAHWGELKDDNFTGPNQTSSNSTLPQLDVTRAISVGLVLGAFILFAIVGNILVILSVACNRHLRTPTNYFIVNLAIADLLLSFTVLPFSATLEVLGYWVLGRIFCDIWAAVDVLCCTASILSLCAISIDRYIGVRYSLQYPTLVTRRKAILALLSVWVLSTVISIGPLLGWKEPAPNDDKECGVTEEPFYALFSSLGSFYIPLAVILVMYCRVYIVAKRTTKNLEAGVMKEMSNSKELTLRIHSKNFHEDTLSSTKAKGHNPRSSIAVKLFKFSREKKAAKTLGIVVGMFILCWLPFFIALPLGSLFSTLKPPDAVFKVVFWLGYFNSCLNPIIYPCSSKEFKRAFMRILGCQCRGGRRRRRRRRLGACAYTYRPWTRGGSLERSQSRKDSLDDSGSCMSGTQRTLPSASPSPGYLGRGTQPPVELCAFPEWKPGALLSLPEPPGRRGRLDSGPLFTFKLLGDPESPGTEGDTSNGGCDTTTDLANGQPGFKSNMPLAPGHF
# Sequence (P43140 whole entry, looked up): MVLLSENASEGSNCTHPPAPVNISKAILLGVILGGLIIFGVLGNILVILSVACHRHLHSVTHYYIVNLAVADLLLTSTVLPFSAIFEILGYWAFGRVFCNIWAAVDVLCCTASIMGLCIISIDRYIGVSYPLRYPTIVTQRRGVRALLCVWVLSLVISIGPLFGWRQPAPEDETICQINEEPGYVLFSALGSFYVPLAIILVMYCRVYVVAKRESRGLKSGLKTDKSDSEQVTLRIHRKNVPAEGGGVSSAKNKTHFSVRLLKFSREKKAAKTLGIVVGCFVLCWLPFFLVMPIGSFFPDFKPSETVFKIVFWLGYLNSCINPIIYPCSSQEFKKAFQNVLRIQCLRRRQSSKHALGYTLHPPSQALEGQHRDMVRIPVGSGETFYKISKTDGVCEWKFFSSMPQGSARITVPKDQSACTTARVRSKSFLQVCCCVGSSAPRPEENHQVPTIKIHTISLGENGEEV
# Procedure text: Selectivity towards alpha 1B and alpha 1A adrenergic receptors
# Type: protein assay
// reported Selectivity per item
API note: the answer field is a bare number with no unit suffix.

Ask | Could you share which Selectivity value was measured for COc1ccccc1N1CCN(CC2Nc3cc(C)ccc3S(=O)(=O)N2)CC1 (stereo unspecified) ?
Reply | 2

Ask | Any idea what its Selectivity is? The molecule is COc1ccccc1N1CCN(CC2Nc3ccccc3S(=O)(=O)N2)CC1 (stereo unspecified)
Reply | 1.5

Ask | Name the recorded Selectivity for COc1ccccc1N1CCN(CC2Nc3cc(Cl)ccc3S(=O)(=O)N2)CC1 (stereo unspecified) .
Reply | 1

Ask | Returns the measured Selectivity for the input molecule. Input: COc1ccccc1N1CCN(CC2=NS(=O)(=O)c3ccc(Cl)cc3N2)CC1
Reply | 8
